Target: Phosphodiesterase 4 (Homo sapiens, UniProt P27815+Q08499+Q07343+Q08493)
Assay: In vitro inhibition of PDE-IV isolated from guinea pig ventricle at 10 uM.
Assay type: protein assay
Settings: Cavia porcellus, target entry is the homologue from another species
inhibition vs 10%: at or above is yes (1), below is no (0).

Would you please look over these solved cases?
SMI	CLASS ASSIGNMENT
CCOc1ccccc1-c1nc2ccc[nH]c-2n1	yes (1)
COc1ccccc1-c1nc2cc[nH]cc-2n1	yes (1)
Oc1ccccc1-c1nc2ccc[nH]c-2n1	no (0)
OCCCOc1ccccc1-c1nc2ccc[nH]c-2n1	yes (1)
CN(C)CCCOc1ccccc1-c1nc2ccc[nH]c-2n1	no (0)

Check the entry CCCNc1ccccc1-c1nc2ccc[nH]c-2n1 : does inhibition equal or exceed 10%?
yes (1)

Could you please find out whether CCCOc1ccccc1-c1nc2[nH]nnc2c(=O)[nH]1 has inhibition that meets 10% or exceeds it?
yes (1)

Given the entry CC(C)(C)Oc1ccccc1-c1nc2ccc[nH]c-2n1 , answer whether its inhibition meets or surpasses 10%.
no (0)

----------
Target: Phosphodiesterase 4 (Homo sapiens, UniProt P27815+Q08499+Q07343+Q08493)
Experiment: In vitro inhibition of PDE-IV isolated from guinea pig ventricle at 10 uM.
Assay type: protein assay
Settings: Cavia porcellus, target entry is the homologue from another species
// NOT MET strictly below 20% in inhibition; MET otherwise

Reference set (3 entries):
SMI	EXPERIMENTAL SYSTEM	CLASS ASSIGNMENT
CC(=O)Oc1ccccc1-c1nc2ccc[nH]c-2n1	Phosphodiesterase 4 (Homo sapiens, UniProt P27815+Q08499+Q07343+Q08493)	NOT MET
CCCOc1ccccc1-c1cn2cccnc2n1	Phosphodiesterase 4 (Homo sapiens, UniProt P27815+Q08499+Q07343+Q08493)	NOT MET
O=[N+]([O-])c1ccccc1-c1nc2ccc[nH]c-2n1	Phosphodiesterase 4 (Homo sapiens, UniProt P27815+Q08499+Q07343+Q08493)	NOT MET

Please tell me: is the compound CNCCCOc1ccccc1-c1nc2ccc[nH]c-2n1 at or over 20% in terms of inhibition?
NOT MET

Identify whether the reported inhibition of the following compound is 20% or greater: CCCCCOc1ccccc1-c1nc2cc[nH]cc-2n1
MET

Assess whether reported inhibition for CCCSc1ccccc1-c1nc2ccc[nH]c-2n1 sits at 20% or higher.
MET

API: above_or_equal(metric=inhibition, cutoff=20%) for item OCCOc1ccccc1-c1nc2ccc[nH]c-2n1
NOT MET

----------
Molecular target: Phosphodiesterase 3 (Homo sapiens, UniProt Q14432+Q13370)
Experiment: Percentage inhibition against PDE-III (phosphodiesterase III) in guinea pig ventricle at 10 uM
Type: protein assay
Settings: Cavia porcellus, target entry is the homologue from another species
Assign met whenever inhibition does not fall below 6%; assign not met whenever it does.

For orientation, consider the following solved cases.
SMI	CLASS ASSIGNMENT
CCCCOc1ccccc1-c1nc2ccc[nH]c-2n1	not met
OCCCOc1ccccc1-c1nc2ccc[nH]c-2n1	not met
COc1ccccc1-c1nc2ccc[nH]c-2n1	met
ClCCCOc1ccccc1-c1nc2ccc[nH]c-2n1	met
CCCCCOc1ccccc1-c1nc2ccc[nH]c-2n1	not met

# bool: inhibition of CCCCCOc1ccccc1-c1nc2cc[nH]cc-2n1 >= 6%
met

Does CCCOc1ccccc1-c1nc2[nH]nnc2c(=O)[nH]1 have a reported inhibition of at least 6%?
met

Exam item: decide whether the reported inhibition for CCCNc1ccccc1-c1nc2ccc[nH]c-2n1 is at least 6%.
not met

inhibition >= 6% for CCOc1ccccc1-c1nc2ccc[nH]c-2n1 ?
met

Is the recorded value of inhibition equal to or greater than 6% for this compound? c1c[nH]c2nc(-c3ccccc3OCC3CC3)nc-2c1
met

# bool: inhibition of CC(=O)Oc1ccccc1-c1nc2ccc[nH]c-2n1 >= 6%
not met

Hi, just wondering whether CC(C)(C)Oc1ccccc1-c1nc2ccc[nH]c-2n1 shows inhibition of 6% or higher.
not met

Hello, I need to know if OCCOc1ccccc1-c1nc2ccc[nH]c-2n1 has measured inhibition not below 6%. Thanks!
not met

// inclusive: inhibition at least 6%? input: CCCSc1ccccc1-c1nc2ccc[nH]c-2n1
not met

----------
This section presents molecules with their documented log10 IC50 values.
Target: Phosphodiesterase 4 (Homo sapiens, UniProt P27815+Q08499+Q07343+Q08493)
Assay: In vitro inhibition of PDE-IV isolated from guinea pig ventricle.
Assay type: protein assay, Cavia porcellus
Conditions: target entry is the homologue from another species
Units before log transform: µM; reported quantity: IC50; transform: log10.

Record CCCOc1ccccc1-c1nc2ccc[nH]c-2n1 . Reported log10 IC50: 1.04

Reported log10 IC50 ( CCCCCCOc1ccccc1-c1nc2ccc[nH]c-2n1 ) = 1.20

Measured log10 IC50, c1c[nH]c2nc(-c3ccccc3OCC3CC3)nc-2c1 : 1.57

Please fill in: log10 IC50 reported for CCCCOc1ccccc1-c1nc2ccc[nH]c-2n1 = 0.78

Just so you know, measured log10 IC50 for CC(C)COc1ccccc1-c1nc2ccc[nH]c-2n1 came out at 0.48

log10 IC50 reported for this molecule ClCCCOc1ccccc1-c1nc2ccc[nH]c-2n1 : 0.95

For this molecule ( c1ccc(COc2ccccc2-c2nc3ccc[nH]c-3n2)cc1 ), measured log10 IC50 is 0.90

Item: c1c[nH]c2nc(-c3ccccc3OC3CCCC3)nc-2c1 | log10 IC50: 1.28

Measured log10 IC50 of CCCCCOc1ccccc1-c1nc2ccc[nH]c-2n1 : 0.78

----------
Molecular target: Phosphodiesterase 3 (Homo sapiens, UniProt Q14432+Q13370)
Assay: Effective dose against PDE-III for increase in contractility following administration to anaesthetised dogs
Conditions: Canis lupus familiaris; target entry is the homologue from another species
Rule: measured ED50 below 0.03 mg/kg gets met; anything equal to or greater than 0.03 mg/kg gets not met.

hey, is ED50 for COc1cc([S+](C)[O-])ccc1-c1nc2cccnc2[nH]1 (stereo not given) lower than 0.03 mg/kg or not?
not met

State whether 0.03 mg/kg exceeds ED50 recorded for CC1(C)C(=O)Nc2ccc(C3=NNC(=O)CC3)cc21 .
met

Lab log: compare recorded ED50 with 0.03 mg/kg; is it strictly lower for Cc1[nH]c(=O)c(C#N)cc1-c1ccncc1 ?
not met

For this compound, is ED50 lower than 0.03 mg/kg? O=C1CCC(c2ccc(-n3ccnc3)cc2)=NN1
not met

----------
Molecular target: Phosphodiesterase 3 (Homo sapiens, UniProt Q14432+Q13370)
Experiment: Percentage inhibition against PDE-III (phosphodiesterase III) in guinea pig ventricle at 10 uM
Format: protein assay
Conditions: Cavia porcellus, target entry is the homologue from another species
Below, each entry is listed with its recorded inhibition.
I only need the number, in %, no unit after it.

Completed entries (count: 3):
SMI	inhibition [%]
COc1ccccc1-c1nc2cc[nH]cc-2n1	6
c1ccc(COc2ccccc2-c2nc3ccc[nH]c-3n2)cc1	0
Oc1ccccc1-c1nc2ccc[nH]c-2n1	15

CCCCCCOc1ccccc1-c1nc2ccc[nH]c-2n1 has a reported inhibition of 0

compound O=[N+]([O-])c1ccccc1-c1nc2ccc[nH]c-2n1 , inhibition observed: 0

Field inhibition (entry CCCOc1ccccc1-c1nc2ccc[nH]c-2n1 ) reads 0

Quick note, inhibition for CN(C)CCCOc1ccccc1-c1nc2ccc[nH]c-2n1 landed at 8

Documented inhibition of c1c[nH]c2nc(-c3ccccc3OC3CCCC3)nc-2c1 : 12

Just so you know, measured inhibition for CNCCCOc1ccccc1-c1nc2ccc[nH]c-2n1 came out at 0

The recorded inhibition for entry CCCOc1ccccc1-c1cn2cccnc2n1 equals 2
